# credit: patent US11174250B2

# Test Target: WDR5 protein (Homo sapiens (Human))
# Test: Surface Plasmon Resonance (SPR) assay
# Format: binding
# Condition Summary: SPR, τ=1/koff; read-out: Residence Time (t, min)
Recorded Metric: residence time (min)
Express the result in min but write the number alone.

Fill in: residence time of CN1CCN(c2ccc(-c3cc(CN4CC[C@@H](S(C)(=O)=O)C4)ccc3F)cc2NC(=O)c2c[nH]c(=O)cc2C(F)(F)F)CC1 is ___
5.13

How about CN1CCN(c2ccc(-c3cc(CN4CCN(Cc5ccc(F)cc5)CC4)ccc3F)cc2NC(=O)c2c[nH]c(=O)cc2C(F)(F)F)CC1 ?
3.81

And the next one, C[C@@H]1CN(c2ccc(-c3cc(C(=O)NC(C)(C)CC(C)(C)C)c(F)cc3F)cc2NC(=O)c2c[nH]c(=O)cc2C(F)(F)F)C[C@H](C)N1C ?
12.5

Param item: CN1CCN(c2ccc(-c3ccc(CN4CCOCC4)cc3F)cc2NC(=O)c2c[nH]c(=O)cc2C(F)(F)F)CC1
3.42

Moving on to the next molecule: C[C@@H]1CN(c2ccc(-c3cc(C(=O)N4CCOCC4)ccc3F)cc2NC(=O)c2c[nH]c(=O)cc2C(F)(F)F)C[C@H](C)N1C
9.58

Thanks! And CN1CCN(c2ccc(-c3cc(CN(C)C4CCCCC4)ccc3F)cc2NC(=O)c2c[nH]c(=O)cc2C(F)(F)F)CC1 ?
8.8

Would you mind doing COCOc1cc(F)c(-c2ccc(N3CCN(C)CC3)c(NC(=O)c3c[nH]c(=O)cc3C(F)(F)F)c2)cc1C(=O)NC(C)(C)CC(C)(C)C as well?
6.4

Can you handle CN1CCN(c2ccc(-c3cc(CN4CCOCC4)ccc3F)cc2NC(=O)c2cn(C)c(=O)cc2C(F)(F)F)CC1 next?
0.3
